FYI, the data here is from PubChem BioAssay (EPA / NIEHS).

# ASSAYED SYSTEM: human Peroxisome Proliferator-activated Receptor alpha (PPARa), PPARA (gene 5465) (UniProt Q07869)
# Sequence (Q07869 whole entry, looked up): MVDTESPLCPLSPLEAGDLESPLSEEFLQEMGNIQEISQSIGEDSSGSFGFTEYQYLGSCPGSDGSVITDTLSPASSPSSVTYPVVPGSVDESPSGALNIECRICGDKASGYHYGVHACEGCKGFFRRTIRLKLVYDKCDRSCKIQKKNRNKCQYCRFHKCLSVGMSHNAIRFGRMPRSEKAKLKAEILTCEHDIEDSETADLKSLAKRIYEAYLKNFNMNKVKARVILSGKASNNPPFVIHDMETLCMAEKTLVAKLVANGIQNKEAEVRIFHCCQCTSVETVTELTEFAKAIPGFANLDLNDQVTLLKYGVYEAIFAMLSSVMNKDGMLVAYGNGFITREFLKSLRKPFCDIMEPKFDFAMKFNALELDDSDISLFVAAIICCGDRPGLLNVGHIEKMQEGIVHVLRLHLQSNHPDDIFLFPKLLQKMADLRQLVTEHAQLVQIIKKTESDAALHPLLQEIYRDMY
# METHOD SUMMARY: ATG_PPARa_TRANS: Attagene TRANS-FACTORIAL HepG2 Assay for human Peroxisome Proliferator-activated Receptor alpha (PPARa) (AID 2283001)
Results filed as inconclusive are left out. Calls of active or inactive are those of the source. The calls were made as follows: active = hit-call score of the fitted dose curve at least 0.9, where 1 is the maximum; inconclusive = response in the unintended direction; inactive = score below 0.9.
Possible outcomes: class 1 = active, class 0 = inactive

MOLECULE: Clc1cccc(Cl)c1Cl
CATEGORY: class 0

MOLECULE: N#Cc1ccccc1Cl
CATEGORY: class 0

MOLECULE: CN(N=O)C(N)=O
CATEGORY: class 0

MOLECULE: CCCCCCCCCCCCc1cccc(S(=O)(=O)O)c1
CATEGORY: class 1

MOLECULE: CC(c1ccc(O)cc1)c1ccc(O)cc1
CATEGORY: class 0

MOLECULE: O=C(O)C1(c2ccc3c(c2)OC[C@H](Cc2ccc(-c4ccccc4)cc2)[C@H]3O)CCCC1
CATEGORY: class 1

MOLECULE: C[N+](C)(C)Cc1ccccc1
CATEGORY: class 0

MOLECULE: CCOP(=S)(OCC)SCSc1cc(Cl)ccc1Cl
CATEGORY: class 0

MOLECULE: CCCCC(CC)C(=O)Cl (stereo not given)
CATEGORY: class 0

MOLECULE: N#Cc1ccc(Cl)cc1
CATEGORY: class 0

MOLECULE: C#CCO
CATEGORY: class 0

MOLECULE: N#Cc1cccnc1
CATEGORY: class 0

MOLECULE: Oc1cccc(-c2ccccc2)c1
CATEGORY: class 0

MOLECULE: O=[N+]([O-])c1cccc2ccccc12
CATEGORY: class 0

MOLECULE: CCCSP(=S)(OCC)Oc1ccc(SC)cc1 (stereo not given)
CATEGORY: class 0
